PROTOCOL DESCRIPTION: Whole blood concentrations after IP administration to mice (LC-MS/MS)
Type: in vivo
EXPERIMENTAL CONDITIONS: mouse, whole blood, intraperitoneal, 10 mg/kg, 10 mg/kg IP QD x 3 days; Day 3, 6.00 hrs
READOUT LABEL: concentration at 6 h (ng/mL)
Report as a plain number; the unit ng/mL is understood.

The molecule identified as CO[C@H]1C[C@@H]2CC[C@@H](C)[C@@](O)(O2)C(=O)C(=O)N2CCCC[C@H]2C(=O)O[C@H]([C@H](C)C[C@@H]2C[C@@H]3C[C@H]2C[C@H]3O)CC(=O)[C@H](C)/C=C(\C)[C@@H](O)[C@@H](OC)C(=O)[C@H](C)C[C@H](C)/C=C/C=C/C=C/1C [Formula I, 37R-hydroxynorbornylrapamycin] registered its concentration at 6 h at 1380
